target: Neuropeptide FF receptor 1 (Homo sapiens, UniProt Q9GZQ6); assay: Agonist activity at NPFFR1 (unknown origin) expressed in HEK293-A cells assessed as inhibition of forskolin-stimulated cAMP accumulation incubated for 30 mins by competition PKA binding assay relative to control; format: functional, cell-based; settings: filed as agonist
Sequence (Q9GZQ6 whole entry): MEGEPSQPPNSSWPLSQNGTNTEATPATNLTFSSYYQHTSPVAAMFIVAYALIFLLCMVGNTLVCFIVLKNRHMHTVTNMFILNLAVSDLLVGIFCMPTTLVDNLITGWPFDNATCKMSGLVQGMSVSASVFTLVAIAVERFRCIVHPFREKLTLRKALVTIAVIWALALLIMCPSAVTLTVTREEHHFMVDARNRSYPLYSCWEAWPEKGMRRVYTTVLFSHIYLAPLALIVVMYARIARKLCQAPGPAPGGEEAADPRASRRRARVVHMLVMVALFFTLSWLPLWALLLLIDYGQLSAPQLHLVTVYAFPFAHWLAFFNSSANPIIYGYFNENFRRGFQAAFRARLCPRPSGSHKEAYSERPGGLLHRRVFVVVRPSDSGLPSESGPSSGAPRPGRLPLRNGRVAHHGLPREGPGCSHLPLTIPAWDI
Each item that follows carries a reported Emax.
QUANTITY KIND: Emax (%)

N=C(N)NCCC[C@H](NC(=O)[C@H](CCC(N)=O)NC(=O)[C@@H]1CCCN1C(=O)[C@H](CS)NC(=O)[C@H](Cc1ccccc1)NC(=O)CNC(=O)[C@@H](CS)NC(=O)[C@@H](N)Cc1ccc(O)cc1)C(=O)N[C@@H](Cc1ccccc1)C(N)=O ... 78.5
N=C(N)NCCC[C@H](NC(=O)[C@H](CCC(N)=O)NC(=O)[C@@H]1CCCN1C(=O)[C@@H]1CSSC[C@H](NC(=O)[C@@H](N)Cc2ccc(O)cc2)C(=O)NCC(=O)N[C@@H](Cc2ccccc2)C(=O)N1)C(=O)N[C@@H](Cc1ccccc1)C(N)=O ... 80.2
N=C(N)NCCC[C@H](NC(=O)[C@H](CCC(N)=O)NC(=O)[C@@H]1CCCN1C(=O)[C@@H](CS)NC(=O)[C@H](Cc1ccccc1)NC(=O)CNC(=O)[C@@H](CS)NC(=O)[C@@H](N)Cc1ccc(O)cc1)C(=O)N[C@@H](Cc1ccccc1)C(N)=O ... 85.7
N=C(N)NCCC[C@H](NC(=O)[C@H](CCC(N)=O)NC(=O)[C@@H]1CCCN1C(=O)[C@H]1CSSC[C@@H](NC(=O)[C@@H](N)Cc2ccc(O)cc2)C(=O)NCC(=O)N[C@@H](Cc2ccccc2)C(=O)N1)C(=O)N[C@@H](Cc1ccccc1)C(N)=O ... 75.6

* * *

system: Mus musculus; assay: Analgesic activity in icv dosed Kunming mouse assessed as time duration during which supraspinal antinociception lasted by radiant heat tail flick test; format: functional
Each item that follows carries a reported Time.
QUANTITY KIND: Time

N=C(N)NCCC[C@H](NC(=O)[C@H](CCC(N)=O)NC(=O)[C@@H]1CCCN1C(=O)[C@@H](CS)NC(=O)[C@H](Cc1ccccc1)NC(=O)CNC(=O)[C@@H](CS)NC(=O)[C@@H](N)Cc1ccc(O)cc1)C(=O)N[C@@H](Cc1ccccc1)C(N)=O ... 3 h
N=C(N)NCCC[C@H](NC(=O)[C@H](CCC(N)=O)NC(=O)[C@@H]1CCCN1C(=O)[C@H]1CSSC[C@@H](NC(=O)[C@@H](N)Cc2ccc(O)cc2)C(=O)NCC(=O)N[C@@H](Cc2ccccc2)C(=O)N1)C(=O)N[C@@H](Cc1ccccc1)C(N)=O ... 3 h

* * *

molecular target: UniProtKB Q9Y5X5; experiment: Agonist activity at NPFFR2 (unknown origin) expressed in HEK293-A cells assessed as inhibition of forskolin-stimulated cAMP accumulation incubated for 30 mins by competition PKA binding assay
Sequence (Q9Y5X5 whole entry): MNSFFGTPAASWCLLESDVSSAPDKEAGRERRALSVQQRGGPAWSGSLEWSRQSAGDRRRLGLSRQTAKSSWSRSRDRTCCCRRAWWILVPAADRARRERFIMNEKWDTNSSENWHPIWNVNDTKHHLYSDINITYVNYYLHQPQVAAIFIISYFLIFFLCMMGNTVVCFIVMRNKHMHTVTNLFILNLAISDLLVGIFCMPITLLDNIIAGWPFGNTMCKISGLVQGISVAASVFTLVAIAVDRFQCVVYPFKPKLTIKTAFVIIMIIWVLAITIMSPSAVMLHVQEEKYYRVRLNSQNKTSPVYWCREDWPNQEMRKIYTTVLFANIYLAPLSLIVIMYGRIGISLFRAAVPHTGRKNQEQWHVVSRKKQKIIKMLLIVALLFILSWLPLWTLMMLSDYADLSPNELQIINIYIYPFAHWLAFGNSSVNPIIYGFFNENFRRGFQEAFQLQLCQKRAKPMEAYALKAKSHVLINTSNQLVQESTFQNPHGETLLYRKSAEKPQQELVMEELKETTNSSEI
Each item that follows carries a reported EC50.
QUANTITY KIND: EC50 (nM)

N=C(N)NCCC[C@H](NC(=O)[C@H](CCC(N)=O)NC(=O)[C@@H]1CCCN1C(=O)[C@@H](CS)NC(=O)[C@H](Cc1ccccc1)NC(=O)CNC(=O)[C@H](CS)NC(=O)[C@@H](N)Cc1ccc(O)cc1)C(=O)N[C@@H](Cc1ccccc1)C(N)=O ... 697
N=C(N)NCCC[C@H](NC(=O)[C@H](CCC(N)=O)NC(=O)[C@@H]1CCCN1C(=O)[C@H]1CSSC[C@@H](NC(=O)[C@@H](N)Cc2ccc(O)cc2)C(=O)NCC(=O)N[C@@H](Cc2ccccc2)C(=O)N1)C(=O)N[C@@H](Cc1ccccc1)C(N)=O ... 192
N=C(N)NCCC[C@H](NC(=O)[C@H](CCC(N)=O)NC(=O)[C@@H]1CCCN1C(=O)[C@@H]1CSSC[C@H](NC(=O)[C@@H](N)Cc2ccc(O)cc2)C(=O)NCC(=O)N[C@@H](Cc2ccccc2)C(=O)N1)C(=O)N[C@@H](Cc1ccccc1)C(N)=O ... 120
N=C(N)NCCC[C@H](NC(=O)[C@H](CCC(N)=O)NC(=O)[C@@H]1CCCN1C(=O)[C@@H](CS)NC(=O)[C@H](Cc1ccccc1)NC(=O)CNC(=O)[C@@H](CS)NC(=O)[C@@H](N)Cc1ccc(O)cc1)C(=O)N[C@@H](Cc1ccccc1)C(N)=O ... 719

Taken from ChEMBL document CHEMBL4699661.
